B1: POU domain, class 3, transcription factor 3, residues 408 to 463; numbered along this chain, P20264 (parent)
chain: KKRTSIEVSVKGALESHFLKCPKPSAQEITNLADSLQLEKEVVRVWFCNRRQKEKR

variants of: B1; test: abundance fitness (aPCA) (normalised: wild type 0, dead -1); higher = more abundant; growth selection in yeast, the domain comes from the species named; details: Homo sapiens
quantity: abundance fitness
I'd appreciate a reply containing only the number, no unit.

Below, each entry is followed by its recorded abundance fitness result.
{"variant.notation": "Q27C", "measured.value": -0.171}
{"variant.notation": "K53L", "measured.value": 0.032}
{"variant.notation": "A26V", "measured.value": -0.1}
{"variant.notation": "K23S", "measured.value": 0.033}
{"variant.notation": "E28T", "measured.value": -0.251}
{"variant.notation": "Q27N", "measured.value": 0.098}
{"variant.notation": "V42F", "measured.value": -0.056}
{"variant.notation": "A33D", "measured.value": -0.863}

Provide one value: measured abundance fitness of C48L
-0.047

Provide one value: measured abundance fitness of T30N
-0.095

Provide one value: measured abundance fitness of N49Q
0.028

Provide one value: measured abundance fitness of I6W
-0.124

Provide one value: measured abundance fitness of V10C
-0.108
